inhibition at 10 µM by entry:
System: DU-145
Assay: Antiproliferative activity against human DU145 cells at 10 uM after 48 hrs by 2-D dish-based WST-assay
Assay type: functional
Details: DU-145, 48 h
property: inhibition at 10 µM (%)

>>> print(df.to_string())
                            chemical_smiles  readout_number
0  Cc1[nH]n(-c2nc3cc(-c4ccc(Cl)cc4)ccc3[nH]2)c(=O)c1Cc1ccccc1              63
1  Cc1[nH]n(-c2ccccn2)c(=O)c1C(=O)Nc1ccccc1              25
2  Cc1[nH]n(-c2nc3cc(C(F)(F)F)ccc3[nH]2)c(=O)c1Cc1ccccc1              84
3       Cc1[nH]n(-c2nc3ccccc3[nH]2)c(=O)c1C             0.8
4  Cc1ccc2[nH]c(-n3[nH]c(C)c(Cc4ccccc4)c3=O)nc2c1              54
5    Cc1ccc2[nH]c(-n3[nH]c(C)c(C)c3=O)nc2c1              19
6  Cc1ccc2[nH]c(-n3[nH]c(C)c(Cc4ccc(Cl)cc4)c3=O)nc2c1              46
7   Cc1nn(-c2nc3ccccc3[nH]2)c(O)c1Cc1ccccc1              47

---

Biological target: UniProtKB Q96Q83
Sequence (Q96Q83 whole entry): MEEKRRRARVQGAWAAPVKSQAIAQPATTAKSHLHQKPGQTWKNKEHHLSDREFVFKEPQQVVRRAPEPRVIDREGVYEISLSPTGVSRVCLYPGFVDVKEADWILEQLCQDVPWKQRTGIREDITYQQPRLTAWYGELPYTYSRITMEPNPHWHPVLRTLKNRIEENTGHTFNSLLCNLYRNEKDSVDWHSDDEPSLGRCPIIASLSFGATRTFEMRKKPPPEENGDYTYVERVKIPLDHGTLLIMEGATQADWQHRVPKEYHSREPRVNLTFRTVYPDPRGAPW
pIC50: −log10 of the molar value.
property: pIC50

>>> df
                            chemical_smiles  property  comparator  readout_number
0  Cc1[nH]n(-c2nc3cc(C(F)(F)F)ccc3[nH]2)c(=O)c1Cc1ccccc1     pIC50           =            6.21
1  O=c1cc(-c2ccccc2)[nH]n1-c1nc2ccccc2[nH]1     pIC50           =            5.14
2  Cc1ccc2[nH]c(-n3[nH]c(C)c(Cc4ccc(Cl)cc4)c3=O)nc2c1     pIC50           =            6.12
3  Cc1[nH]n(-c2nc3cc(Br)ccc3[nH]2)c(=O)c1Cc1ccccc1     pIC50           =            6.31
4  Cc1[nH]n(-c2nc3ccccc3[nH]2)c(=O)c1Cc1ccc(Cl)cc1     pIC50           <            5.00

---

Assay: Initial plasma concentration in Sprague-Dawley rat serum at 0.5 mg/kg, iv
Format: ADME, organism-based
Parameters: dose 0.5 mg/kg, route intravenous
property: C0 (ng/mL)

                            chemical_smiles  measurement_unit  readout_number
0  Cc1ccc2nc(-n3[nH]c(C)c(Cc4ccccc4)c3=O)[nH]c2c1             ng/mL             430

---

Experiment: Cmax in Sprague-Dawley rat serum at 32 mg/kg, po
Type: ADME, organism-based
Parameters: dose 32 mg/kg, route oral
property: Cmax (ng/mL)

>>> df
                            chemical_smiles  measurement_unit  readout_number
0  Cc1ccc2nc(-n3[nH]c(C)c(Cc4ccccc4)c3=O)[nH]c2c1             ng/mL             350

---

Test system: DU-145
Test: Antiproliferative activity against human DU145 cells at 1 uM after 7 days by 3-D agar-based WST-assay
Type: functional
Settings: DU-145, 168 h
property: inhibition at 1 µM

                            chemical_smiles  result
0  Cc1ccc2[nH]c(-n3[nH]c(C)c(Cc4ccccc4)c3=O)nc2c1     34%
1   Cc1nn(-c2nc3ccccc3[nH]2)c(O)c1Cc1ccccc1     42%
2    Cc1ccc2[nH]c(-n3[nH]c(C)c(C)c3=O)nc2c1    3.8%
3  Cc1ccc2[nH]c(-n3[nH]c(C)c(Cc4ccc(Cl)cc4)c3=O)nc2c1    2.8%
4  Cc1[nH]n(-c2nc3cc(Cl)ccc3[nH]2)c(=O)c1Cc1ccccc1     84%
5  Cc1[nH]n(-c2nc3cc(-c4ccc(Cl)cc4)ccc3[nH]2)c(=O)c1Cc1ccccc1     91%
6  Cc1[nH]n(-c2nc3cc(C(F)(F)F)ccc3[nH]2)c(=O)c1Cc1ccccc1     90%
